Documented CLint scaled at 1 µM across a set of molecules
- Experimental details: Metabolic stability in monkey liver microsomes assessed as intrinsic clearance at 1 uM in the presence of NADPH measured for 60 mins by LC-MS/MS analysis
- Assay type: ADME, Macaca mulatta, Microsome
- Measurement conditions: rhesus monkey, read-out: CLH
Readout label: CLint scaled at 1 µM

| Molecule | Readout label | Observed result |
| --- | --- | --- |
| CCOc1cc2c(cc1OC)C1CC(O)C(CC(C)C)CN1CC2 (stereo unspecified) | CLint scaled at 1 µM | 7.86 L/h/kg |
| COc1cc2c(cc1OCC(F)(F)F)CCN1CC(CC(C)C)C(O)CC21 (stereo unspecified) | CLint scaled at 1 µM | 1.91 L/h/kg |
| COc1cc2c(cc1OCC1CC1)CCN1CC(CC(C)C)C(O)CC21 (stereo unspecified) | CLint scaled at 1 µM | 4.34 L/h/kg |
| CCCOc1cc2c(cc1OCC)C1CC(O)C(CC(C)C)CN1CC2 (stereo unspecified) | CLint scaled at 1 µM | 7.21 L/h/kg |
| COc1cc2c(cc1OC)C1CC(=O)C(CC(C)C)CN1CC2 (stereo unspecified) | CLint scaled at 1 µM | 8.93 L/h/kg |
| COc1cc2c(cc1OC)[C@H]1C[C@@H](O)[C@H](CC(C)C)CN1CC2 [DIHYDROTETRABENAZINE] | CLint scaled at 1 µM | 3.22 L/h/kg |
